Assay: chemical genetic growth profiling, strain panel (AID 1159580);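 note: tested at 20 µM; growth read once vehicle control cultures reached saturation at 30 °C; lower values mean less growth of the strain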
Settings: S. cerevisiae deletion strains, growth OD, locus YJL134W, strain LCB3
The campaign covered roughly 5,500 compounds. About 2,000 (36%) were called active. Another 18% or so got no clear call; they are omitted. Cut-off read from the data, not from the text of the source: active = normalized growth mostly below about 0.91 (no sharp cut-off); inconclusive = no clear call, values can overlap the other calls; inactive = mostly above about 0.92. The list shows a part of the results.
Outcome codes: T for active, F for inactive

>  <compound>
O=C(O)C1(O)C[C@@H](O)C(O)[C@H](O)C1 (some centres undefined)

>  <qualitative label>
F

$$$$
>  <compound>
CC(C)OC(=O)C(C)(C)Oc1ccc(C(=O)c2ccc(Cl)cc2)cc1

>  <qualitative label>
F

$$$$
>  <compound>
O=C(CC[N+](=O)[O-])OC[C@H]1O[C@@H](O)[C@H](OC(=O)CC[N+](=O)[O-])[C@@H](OC(=O)CC[N+](=O)[O-])[C@@H]1OC(=O)CC[N+](=O)[O-]

>  <qualitative label>
F

$$$$
>  <compound>
COc1ccc2cc([C@H](C)C(=O)O)ccc2c1

>  <qualitative label>
F

$$$$
>  <compound>
COc1ccc2cc([C@H](C)CO)ccc2c1

>  <qualitative label>
F

$$$$
>  <compound>
NCCSSCCN

>  <qualitative label>
F

$$$$
>  <compound>
CC(=O)c1c(O)c(C)c(O)c2c1oc1c(C(C)=O)c(O)c(C)c(O)c12

>  <qualitative label>
F

$$$$
>  <compound>
CS(=O)(=O)c1ccc(C2=C(c3ccccc3)C(=O)OC2)cc1

>  <qualitative label>
F

$$$$
>  <compound>
CC(=O)OCC[N+](C)(C)C

>  <qualitative label>
F

$$$$
>  <compound>
Cc1cccc(C)c1OCC(C)N (centres undefined)

>  <qualitative label>
F

$$$$
>  <compound>
C[C@@H]1[C@H]2[C@H](O[C@@H]3O[C@H](CO)[C@@H](O)[C@H](O)[C@H]3O)OC=C(C(=O)O)[C@H]2C[C@@H]1O

>  <qualitative label>
F

$$$$
>  <compound>
COc1ccc2c(c1OC)C(=O)O[C@H]2[C@H]1c2cc3c(cc2CCN1C)OCO3

>  <qualitative label>
F

$$$$
>  <compound>
CCN(CC)CCCC(C)Nc1ccnc2cc(Cl)ccc12 (centres undefined)

>  <qualitative label>
F

$$$$
>  <compound>
CC1(C)C(C=C(Cl)Cl)C1C(=O)OC(C#N)c1cccc(Oc2ccccc2)c1 (centres undefined)

>  <qualitative label>
F

$$$$
>  <compound>
CCN(CC)CCNC(=O)c1cc(Br)c(N)cc1OC

>  <qualitative label>
F

$$$$
>  <compound>
CC1=C(C(C)O)C2=NC1C=c1[nH]c(c(C)c1C(C)O)=Cc1[nH]c(c(CCC(=O)O)c1C)C=c1[nH]c(c(C)c1CCC(=O)O)=C2 (centres undefined)

>  <qualitative label>
F

$$$$
>  <compound>
CC(=O)C1CCC2C3CC(=O)C4=CC(=O)CCC4(C)C3CCC12C (centres undefined)

>  <qualitative label>
F

$$$$
>  <compound>
COc1cc(O)c(C(=O)/C=C/c2ccccc2)c(OC)c1

>  <qualitative label>
F

$$$$
>  <compound>
COc1ccc2c3c1O[C@H]1C[C@@H](O)C=C[C@@]31CCN(C)C2

>  <qualitative label>
F

$$$$
>  <compound>
CCC(C)C(OC(C)=O)C(=O)OC1C(O)C2C3(C)C=CC(=O)C(C)(C)C3CC(OC(=O)C(O)C(C)C)C2(C)C23OC2CC(c2ccoc2)C13C (centres undefined)

>  <qualitative label>
F

$$$$
>  <compound>
COc1cc(NC(C)CCCN)c2ncccc2c1 (centres undefined)

>  <qualitative label>
F

$$$$
>  <compound>
C[N+](C)(C)CCOC(N)=O

>  <qualitative label>
F

$$$$
>  <compound>
CCN(CCO)CCCC(C)Nc1ccnc2cc(Cl)ccc12 (centres undefined)

>  <qualitative label>
F

$$$$
>  <compound>
CN(C)c1ccc(C(=C2C=CC(=[N+](C)C)C=C2)c2ccc(N(C)C)cc2)cc1

>  <qualitative label>
T

$$$$
>  <compound>
NCC1CCC(C(=O)O)CC1 (centres undefined)

>  <qualitative label>
F

$$$$
>  <compound>
Cc1cc(O)c(C)c(O)c1C(=O)O

>  <qualitative label>
F

$$$$
>  <compound>
ClC1=C(Cl)C2(Cl)C3C(Cl)C=CC3C1(Cl)C2(Cl)Cl (centres undefined)

>  <qualitative label>
F

$$$$
>  <compound>
CCOC(=O)c1c(C)cc(O)c(C)c1O

>  <qualitative label>
F

$$$$
>  <compound>
COc1ccc(OC)c(C(O)C(C)N)c1 (centres undefined)

>  <qualitative label>
F

$$$$
>  <compound>
CCOC(=O)[C@H](CCc1ccccc1)N[C@H]1CCc2ccccc2N(CC(=O)O)C1=O

>  <qualitative label>
F

$$$$
>  <compound>
CC(N)C(=O)OC(C)(C)Cc1ccc(Cl)cc1 (centres undefined)

>  <qualitative label>
F

$$$$
>  <compound>
OCC(O)C(O)C(O)CO (centres undefined)

>  <qualitative label>
F

$$$$
>  <compound>
CC(C(=O)O)c1ccc(-c2ccccc2)c(F)c1 (centres undefined)

>  <qualitative label>
F

$$$$
>  <compound>
CC(Oc1ccccc1)C(=O)N[C@@H]1C(=O)N2[C@@H]1SC(C)(C)[C@@H]2C(=O)O (some centres undefined)

>  <qualitative label>
F

$$$$
>  <compound>
CC[C@H](/C=C/C(C)C1CCC2C3CCC4=CC(=O)CC[C@]4(C)C3CC[C@]12C)C(C)C (some centres undefined)

>  <qualitative label>
F

$$$$
>  <compound>
C=C(C)[C@@H]1[C@H]2OC(=O)[C@@H]1[C@]1(O)C[C@H]3O[C@]34C(=O)O[C@H]2[C@]14C

>  <qualitative label>
F

$$$$
>  <compound>
CC(C[N+](C)(C)C)OC(N)=O (centres undefined)

>  <qualitative label>
F

$$$$
>  <compound>
CC(C(=O)O)c1cccc(Oc2ccccc2)c1 (centres undefined)

>  <qualitative label>
F

$$$$
>  <compound>
CCS(=O)CCSP(=O)(OC)OC (centres undefined)

>  <qualitative label>
F

$$$$
>  <compound>
CC(C)(OC(=O)c1ccccc1)[C@@H]1Cc2cc3ccc(=O)oc3cc2O1

>  <qualitative label>
F

$$$$
>  <compound>
C=C1C([C@]2(C)C(CC(=O)OC)[C@@](C)(COC(C)=O)OC(=O)C[C@@H]2OC(C)=O)[C@@H](OC=O)[C@H](OC(=O)C(O)C(C)CC)[C@@]2(C)[C@H](c3ccoc3)CC(=O)C12O (some centres undefined)

>  <qualitative label>
F

$$$$
>  <compound>
CC1=C(CC(=O)O)c2cc(F)ccc2/C1=C\c1ccc(S(C)=O)cc1 (centres undefined)

>  <qualitative label>
F

$$$$
>  <compound>
COC1=CC(=O)C[C@@H](C)[C@]12Oc1c(Cl)c(OC)cc(OC)c1C2=O

>  <qualitative label>
F

$$$$
>  <compound>
c1ccc(N=Nc2ccccc2)cc1

>  <qualitative label>
F

$$$$
